Provide the recorded IC50 for the entries that follow.
Target: C5aR (Homo sapiens)
Experiment: Intracellular calcium release assay in HMDM against rhC5a
Conditions: IC50, C5a 100 nM, HMDM calcium release
Give bare numbers, in nM.

CCc1cccc(CC)c1-c1cc(OC(C)C)c2c(n1)CCCC2Nc1ccccc1CCO (centres unmarked) : 632

Which measured IC50 value corresponds to COc1ccc2c(c1)C(C(=O)N(Cc1ccc(N(C)C)cc1)c1ccc(C(C)C)cc1)CCC2 (centres unmarked) ? 350

###

Test: Pharmacokinetics and oral bioavailability in rats (LCMS of plasma)
Conditions: male, Wistar, rat, plasma, po, 10 mg/kg
Kindly supply the reported AUC values for the records listed here.
One number for each entry, in ng·h/mL.

COc1ccc2c(c1)C(C(=O)N(Cc1ccc(N(C)C)cc1)c1ccc(C(C)C)cc1)CCC2 (centres unmarked) : 1570

Please examine the following record next.
Bench note: what AUC did CCc1cccc(CC)c1-c1cc(OC(C)C)c2c(n1)CCCC2Nc1ccccc1CCO (centres unmarked) show? 501

###

Target: C5aR (Homo sapiens)
Sequence (P21730 1-350): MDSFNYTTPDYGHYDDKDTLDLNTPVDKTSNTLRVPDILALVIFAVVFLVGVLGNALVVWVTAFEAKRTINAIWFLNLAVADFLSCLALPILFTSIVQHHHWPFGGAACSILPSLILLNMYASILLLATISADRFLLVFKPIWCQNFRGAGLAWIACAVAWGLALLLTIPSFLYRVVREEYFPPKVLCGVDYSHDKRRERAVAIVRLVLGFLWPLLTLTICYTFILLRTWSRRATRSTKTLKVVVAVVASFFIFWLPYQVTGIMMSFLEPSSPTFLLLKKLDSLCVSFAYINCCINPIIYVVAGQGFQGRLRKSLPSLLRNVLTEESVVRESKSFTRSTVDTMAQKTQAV
Experiment: Intracellular calcium release assay in HMDM against rhC5a
Conditions: IC50, C5a 30 nM, HMDM calcium release
Exercise: state measured pIC50 for each of the molecules provided.
One number for each entry, as −log10 of the molar value.

COc1ccc2c(c1)C(C(=O)N(Cc1ccc(N(C)C)cc1)c1ccc(C(C)C)cc1)CCC2 (centres unmarked) [W54011] : 7.26

Now for another entry.
// returns reported pIC50 for input CCc1cccc(CC)c1-c1cc(OC(C)C)c2c(n1)CCCC2Nc1ccccc1CCO (centres unmarked) [JJ47] 6.29

###

I'd appreciate it if you could supply pIC50 values for the items below.
Biological target: C5aR (Homo sapiens, UniProt P21730)
Test: Intracellular calcium release assay in HMDM against rhC5a
Details: IC50, C5a 10 nM, HMDM calcium release
Answers are plain numbers, as −log10 of the molar value.

COc1ccc2c(c1)C(C(=O)N(Cc1ccc(N(C)C)cc1)c1ccc(C(C)C)cc1)CCC2 (centres unmarked) : 7.62

Next up:
Any idea what pIC50 came out for CCc1cccc(CC)c1-c1cc(OC(C)C)c2c(n1)CCCC2Nc1ccccc1CCO (centres unmarked) on C5aR (Homo sapiens, UniProt P21730)? 6.91

###

Assay: in vivo
Details: rat, in vivo
readout-type: half-life (min)
One number for each entry, in min.

# get_value(readout='half-life', item= CC(=O)N[C@@H](Cc1ccccc1)C(=O)N[C@H]1CCCNC(=O)[C@H](CCCNC(=N)N)NC(=O)[C@H](Cc2c[nH]c3ccccc23)NC(=O)[C@@H](CC2CCCCC2)NC(=O)[C@@H]2CCCN2C1=O [3D53, Ac-Phe-[Orn-Pro-D-Cha-Trp-Arg]] ) 21.6
